Just for reference, paper PMC10333884 is where these values come from.

SYSTEM: T1, GGA1 VHS domain (human, UniProt Q9UJY5 17-147)
T1 construct: GGA1, VHS domain; source: E. coli BL21-Gold(DE3), purified (GSH or Ni2+ beads), tag removed by protease
T1 sequence (looked up): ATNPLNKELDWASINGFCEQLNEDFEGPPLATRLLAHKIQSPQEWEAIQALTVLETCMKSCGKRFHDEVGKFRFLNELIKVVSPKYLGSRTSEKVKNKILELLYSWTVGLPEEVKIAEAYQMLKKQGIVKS
ASSAY SUMMARY: fluorescence polarisation; direct binding (saturation curve): 1:1 dilution series of the protein domain with 5 nM FITC-labelled peptide; room temperature; 50 mM sodium phosphate buffer pH 7.4; fitted to the quadratic equation
TEST CONDITIONS: both partners purified
No end group written: not given here.
METRIC: pKd
Please note pKd is a logarithmic value: minus log10 of concentration in mol/L. Answer with that number alone.

Looking up DDSDEDLLHI (also: FITC label, position not given here) [FITC-IGF2R] , I see its pKd listed as 4.51
